Compiled literature Ki, tested on Urokinase-type plasminogen activator (Homo sapiens).
Quick rule for you: Ki under 2 µM gets Met, anything else gets Not met.

{"COMPOUND": "CCc1ccc(-c2cccc(S(=O)(=O)NC(Cc3cccc(C(=N)N)c3)C(=O)N3CCC(CCN)CC3)c2)cc1 (racemic)", "GROUP": "Not met"}
{"COMPOUND": "NC[C@H]1CC[C@H](C(=O)N[C@@H](Cc2ccccc2)c2cc(-c3ccc4c(N)n[nH]c4c3)ccn2)CC1", "GROUP": "Not met"}
{"COMPOUND": "N=C(N)NCCC(=O)N1CCN(C(=O)[C@H](Cc2cccc(C(=N)N)c2)NS(=O)(=O)c2ccc3ccccc3c2)CC1", "GROUP": "Not met"}
{"COMPOUND": "NC(=O)[C@H]1CCCN1S(=O)(=O)c1ccc2c(Cl)cnc(N=C(N)N)c2c1", "GROUP": "Met"}
{"COMPOUND": "CCOC(=O)C1(NS(=O)(=O)c2ccc3c(Cl)cnc(N=C(N)N)c3c2)CCCC1", "GROUP": "Met"}
{"COMPOUND": "NCc1ccccc1CNC(=O)CNC(=O)C(CCc1cccc[n+]1[O-])NS(=O)(=O)Cc1ccccc1 (centres undefined)", "GROUP": "Not met"}
{"COMPOUND": "NC(N)=Nc1ncc(Cl)c2ccc(S(=O)(=O)NC3(CO)CCCC3)cc12", "GROUP": "Met"}
{"COMPOUND": "CSc1sc(C(=N)N)cc1-c1csc(NC(c2ccccc2)c2ccccc2)n1", "GROUP": "Met"}
